target: Vasopressin V2 receptor (Bos taurus, UniProt P48044)
Sequence (P48044 whole entry): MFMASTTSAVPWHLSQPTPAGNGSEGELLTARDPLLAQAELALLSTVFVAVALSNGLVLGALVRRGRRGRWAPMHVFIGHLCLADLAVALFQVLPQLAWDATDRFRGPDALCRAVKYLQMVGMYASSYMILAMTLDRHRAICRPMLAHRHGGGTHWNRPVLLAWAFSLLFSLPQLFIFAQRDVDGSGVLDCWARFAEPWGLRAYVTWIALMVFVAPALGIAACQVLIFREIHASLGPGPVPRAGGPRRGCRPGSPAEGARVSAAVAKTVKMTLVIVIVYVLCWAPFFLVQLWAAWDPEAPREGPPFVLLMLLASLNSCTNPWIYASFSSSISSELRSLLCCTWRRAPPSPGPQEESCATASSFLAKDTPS
methodSummary: Binding affinity against plasma membrane from bovine kidney inner medulla
pKd: −log10 of the molar value. Positions of bridges follow the written chain, without caps; N, C: chain ends. Non-standard residues stand in square brackets, D forms with d. Residues, ends and D or L forms follow the SMILES beside them. NMeA = CN[C@@H](C)C(=O)O; Mpa = O=C(O)CCS; Sar = CNCC(=O)O
attributeMeasured: pKd

compound="CC(C)[C@@H]1NC(=O)[C@H](Cc2ccccc2)NC(=O)[C@H](Cc2ccc(O)cc2)NC(=O)[C@@H](N)CSSC[C@@H](C(=O)N(C)[C@@H](C)C(=O)N[C@@H](CCCNC(=N)N)C(=O)NCC(N)=O)NC(=O)[C@H](CC(N)=O)NC1=O (H-CYFVNC[NMeA]RG-NH2; disulfide 1-6)" valuemeasured=7.48
compound=CC(C)[C@H]1NC(=O)[C@H](Cc2ccccc2)NC(=O)[C@@H](Cc2ccc(O)cc2)NC(=O)CCSSC[C@@H](C(=O)N(C)[C@@H](C)C(=O)N[C@@H](CCCN=C(N)N)C(=O)NCC(N)=O)NC(=O)[C@H](CC(N)=O)NC1=O valuemeasured=8.03
compound="CC(C)[C@@H]1NC(=O)[C@H](Cc2ccccc2)NC(=O)[C@H](Cc2ccc(O)cc2)NC(=O)[C@@H](N)CSSC[C@@H](C(=O)N(C)CC(=O)N[C@@H](CCCNC(=N)N)C(=O)NCC(N)=O)NC(=O)[C@H](CC(N)=O)NC1=O (H-CYFVNC[Sar]RG-NH2; disulfide 1-6)" valuemeasured=8.03
compound=C[C@@H](C(=O)N[C@H](CCCN=C(N)N)C(=O)NCC(N)=O)N(C)C(=O)[C@@H]1CSSC[C@H](N)C(=O)N[C@@H](Cc2ccc(O)cc2)C(=O)N[C@@H](Cc2ccccc2)C(=O)N[C@@H](CCC(N)=O)C(=O)N[C@@H](CC(N)=O)C(=O)N1 valuemeasured=7.68
compound=CN(CC(=O)N[C@H](CCCN=C(N)N)C(=O)NCC(N)=O)C(=O)[C@@H]1CSSC[C@H](N)C(=O)N[C@@H](Cc2ccc(O)cc2)C(=O)N[C@@H](Cc2ccccc2)C(=O)N[C@@H](CCC(N)=O)C(=O)N[C@@H](CC(N)=O)C(=O)N1 valuemeasured=8.00
compound=CN(CC(=O)N[C@H](CCCN=C(N)N)C(=O)NCC(N)=O)C(=O)[C@@H]1CSSCCC(=O)N[C@@H](Cc2ccc(O)cc2)C(=O)N[C@@H](Cc2ccccc2)C(=O)N[C@@H](CCC(N)=O)C(=O)N[C@@H](CC(N)=O)C(=O)N1 valuemeasured=8.06
compound=C[C@@H](C(=O)N[C@H](CCCN=C(N)N)C(=O)NCC(N)=O)N(C)C(=O)[C@@H]1CSSCCC(=O)N[C@@H](Cc2ccc(O)cc2)C(=O)N[C@@H](Cc2ccccc2)C(=O)N[C@@H](CCC(N)=O)C(=O)N[C@@H](CC(N)=O)C(=O)N1 valuemeasured=7.29
compound="C[C@@H](C(=O)N[C@@H](CCCN=C(N)N)C(=O)NCC(N)=O)N(C)C(=O)[C@@H]1CSSC[C@H](N)C(=O)N[C@@H](Cc2ccccc2)C(=O)N[C@@H](Cc2ccccc2)C(=O)N[C@@H](CCC(N)=O)C(=O)N[C@@H](CC(N)=O)C(=O)N1 (H-CFFQNC[NMeA]RG-NH2; disulfide 1-6)" valuemeasured=6.96
compound="CN(CC(=O)N[C@@H](CCCNC(=N)N)C(=O)NCC(N)=O)C(=O)[C@@H]1CSSC[C@H](N)C(=O)N[C@@H](Cc2ccccc2)C(=O)N[C@@H](Cc2ccccc2)C(=O)N[C@@H](CCC(N)=O)C(=O)N[C@@H](CC(N)=O)C(=O)N1 (H-CFFQNC[Sar]RG-NH2; disulfide 1-6)" valuemeasured=7.36
compound="CC(C)[C@@H]1NC(=O)[C@H](Cc2ccccc2)NC(=O)[C@H](Cc2ccc(O)cc2)NC(=O)CCSSC[C@@H](C(=O)N(C)CC(=O)N[C@@H](CCCN=C(N)N)C(=O)NCC(N)=O)NC(=O)[C@H](CC(N)=O)NC1=O ([Mpa]YFVNC[Sar]RG-NH2; disulfide 1-6)" valuemeasured=8.85
